- protocolNotes: molar heat capacity at constant pressure
- measurementContext: 333.15 K; 101.33 kPa; Crystal
Numbers after ± are expanded uncertainties.
The entries below are paired with their reported molar heat capacity at constant pressure.
recordedMetric: molar heat capacity at constant pressure

>>> valuemeasured("Cn1ccc(=O)[nH]c1=O")
"235 ± 7.3 J/K/mol"
>>> valuemeasured("Cc1nc(O)nc(O)c1C [2,4-dihydroxy-5,6-dimethylpyrimidine]")
"223.3 ± 6.9 J/K/mol"
>>> valuemeasured("Cc1c[nH]c(=O)[nH]c1=O")
"200 ± 6.2 J/K/mol"
>>> valuemeasured("Oc1ncc(Cl)c(O)n1")
"152.9 ± 4.7 J/K/mol"
>>> valuemeasured("Cc1cc(=O)n(C)c(=O)[nH]1")
"203.8 ± 6.3 J/K/mol"
>>> valuemeasured("O=c1[nH]cc(C(F)(F)F)c(=O)[nH]1")
"199.4 ± 6.2 J/K/mol"
>>> valuemeasured("Cc1cn(C)c(=O)[nH]c1=O")
"202 ± 6.3 J/K/mol"
>>> valuemeasured("Cc1cc(=O)[nH]c(=O)n1C")
"225.1 ± 7.9 J/K/mol"
>>> valuemeasured("O=c1[nH]cc(I)c(=O)[nH]1")
"170.3 ± 5.3 J/K/mol"
>>> valuemeasured("O=c1[nH]cc(F)c(=O)[nH]1")
"147.9 ± 4.9 J/K/mol"

###

- protocolNotes: molar heat capacity at constant pressure
- measurementContext: 298.15 K; 101.33 kPa; Crystal
recordedMetric: molar heat capacity at constant pressure (J/K/mol)

>>> valuemeasured("Oc1ncc(Cl)c(O)n1 [5-chloro-2,4-pyrimidinedione]")
136.7
>>> valuemeasured("Cc1c[nH]c(=O)[nH]c1=O [thymine]")
163
>>> valuemeasured("CCCCc1cn(C)c(=O)n(C)c1=O [2,4(1H,3H)-pyrimidinedione, 5-butyl-1,3-dimethyl-]")
358.1
>>> valuemeasured("Cn1c2c(c(=O)n(C)c1=O)CCC2 [1,3-dimethyl-5,6-trimethyleneuracil]")
252.9
>>> valuemeasured("O=c1[nH]cc(I)c(=O)[nH]1 [5-iodouracil]")
150.9
>>> valuemeasured("CCc1cn(C)c(=O)n(C)c1=O [2,4(1H,3H)-pyrimidinedione, 5-ethyl-1,3-dimethyl-]")
241.1
>>> valuemeasured("Cc1cn(C)c(=O)[nH]c1=O [1,5-dimethyluracil]")
187.6
>>> valuemeasured("Cn1c2c(c(=O)n(C)c1=O)CCCC2 [1,3-dimethyl-5,6,7,8-tetrahydroquinazoline-2,4(1H,3H)-dione]")
282.9
>>> valuemeasured("Cc1cc(=O)n(C)c(=O)[nH]1 [3,6-dimethyluracil]")
187.4
>>> valuemeasured("O=c1cc(Cl)[nH]c(=O)[nH]1 [6-chlorouracil]")
139.4
>>> valuemeasured("O=c1[nH]cc(F)c(=O)[nH]1 [5-fluoro-2,4(1H,3H)-pyrimidinedione]")
138.3
>>> valuemeasured("Cn1c(=O)cc[nH]c1=O [uracil, 3-methyl-]")
157
>>> valuemeasured("Cn1c2c(c(=O)n(C)c1=O)CCCCC2")
314.5
>>> valuemeasured("O=c1[nH]cc(C(F)(F)F)c(=O)[nH]1 [5-(trifluoromethyl)uracil]")
182.2
>>> valuemeasured("CCc1cc(=O)n(C)c(=O)n1C [2,4(1H,3H)-pyrimidinedione, 6-ethyl-1,3-dimethyl-]")
241.8
>>> valuemeasured("Cc1cc(=O)[nH]c(=O)n1C [1,6-dimethyluracil]")
188.1
>>> valuemeasured("Cc1nc(O)nc(O)c1C [2,4-dihydroxy-5,6-dimethylpyrimidine]")
191.1
>>> valuemeasured("Cn1ccc(=O)n(C)c1=O [1,3-dimethyl-2,4-(1H,3H)-pyrimidinedione]")
182.5
>>> valuemeasured("CCCCc1cc(=O)n(C)c(=O)n1C [2,4(1H,3H)-pyrimidinedione, 6-butyl-1,3-dimethyl-]")
296.4
